measured_on: human Dopamine D1 receptor (Homo sapiens, UniProt P21728)
Construct: expressed in transfected cells; host or cells: Ltk- cells (mouse fibroblasts), membrane preparation
Sequence (P21728 whole entry): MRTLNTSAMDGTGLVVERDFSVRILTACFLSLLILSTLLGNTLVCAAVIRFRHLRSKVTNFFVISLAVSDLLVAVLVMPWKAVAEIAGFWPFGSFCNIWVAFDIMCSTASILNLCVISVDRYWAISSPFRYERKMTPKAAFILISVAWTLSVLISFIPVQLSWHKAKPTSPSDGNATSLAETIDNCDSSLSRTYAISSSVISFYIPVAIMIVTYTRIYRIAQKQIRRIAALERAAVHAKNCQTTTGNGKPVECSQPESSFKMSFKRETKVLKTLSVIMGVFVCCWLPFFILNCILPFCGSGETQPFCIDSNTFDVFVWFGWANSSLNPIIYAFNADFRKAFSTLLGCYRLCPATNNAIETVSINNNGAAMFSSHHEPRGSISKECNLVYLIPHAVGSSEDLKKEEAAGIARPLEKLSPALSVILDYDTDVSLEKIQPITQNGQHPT
assay_procedure: radioligand binding competition assay, displacement of [3H]SCH 23390 from D1 receptor (Ltk-cells membranes);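 further: under 5 nM class also requires D2 to D1 selectivity above 500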
condition_description: class combines Ki (D1) and, for A and B, D2:D1 selectivity (Ki D2 / Ki D1); read-out: D1 binding and D2:D1 Selectivity
pKi: −log10 of the molar value.
outcome_measure: pKi

compound	pKi
N=C(/C=C/c1ccc(-c2ccsc2)cc1)Nc1ccc(Cl)cc1 [Example 64]	7.30 to 8.00
COc1ccc(/C=C/C(=N)Nc2ccc(C(C)(C)C)cc2)cc1 [Example 133]	5.00 to 7.30
N=C(/C=C/c1ccc(-c2ccc(CN3CCNCC3)cc2)cc1)Nc1ccc(Cl)cc1 [Example 68]	7.30 to 8.00
N=C(/C=C/c1ccc(Cc2cccnc2)cc1)Nc1ccc(OC(F)(F)F)cc1 [Example 124]	5.00 to 7.30
N=C(/C=C/c1ccccc1I)Nc1ccc(Cl)cc1 [Example 5]	5.00 to 7.30

Prompt line: What value of measured pKi is listed for N=C(/C=C/c1ccc(Cc2ccccn2)cc1)Nc1ccc(Cl)cc1 [Example 19] ?
Response line: 5.00 to 7.30

Prompt line: What value of measured pKi is listed for N=C(/C=C/c1ccc(N2CCOCC2)cc1)Nc1ccc(Cl)cc1 [Example 86] ?
Response line: 5.00 to 7.30

Prompt line: What value of measured pKi is listed for N=C(/C=C/c1ccc(N2CCCC2)cc1)Nc1ccc(Cl)cc1 [Example 90] ?
Response line: 5.00 to 7.30

Prompt line: What value of measured pKi is listed for COc1ccc(/C=C/C(=N)Nc2cccc(C(F)(F)F)c2)cc1 [Example 1] ?
Response line: 5.00 to 7.30

###

measured_on: human Dopamine D1 receptor (Homo sapiens)
Construct: expressed in transfected cells; host or cells: Ltk- cells (mouse fibroblasts), membrane preparation
assay_procedure: radioligand binding competition assay, displacement of [3H]SCH 23390 from D1 receptor (Ltk-cells membranes);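 further: under 5 nM class also requires D2 to D1 selectivity above 500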
condition_description: class combines Ki (D1) and, for A and B, D2:D1 selectivity (Ki D2 / Ki D1); read-out: D1 binding and D2:D1 Selectivity
pKi: −log10 of the molar value.
outcome_measure: pKi

structure_notation	measured_on	pKi
N=C(Cc1ccc2ccccc2c1)Nc1ccc(Cl)cc1	human Dopamine D1 receptor (Homo sapiens)	5.00 to 7.30
COc1ccc(/C=C/C(=N)Nc2ccc(Cl)cc2)cc1OC	human Dopamine D1 receptor (Homo sapiens)	7.30 to 8.00
N=C(/C=C/c1ccc(-c2ccccn2)cc1)Nc1ccc(Cl)cc1	human Dopamine D1 receptor (Homo sapiens)	7.30 to 8.00
N=C(/C=C/c1ccc(N2CCN(c3ccccc3)CC2)cc1)Nc1ccc(Cl)cc1	human Dopamine D1 receptor (Homo sapiens)	5.00 to 7.30

Now let's try a different one.
Prompt line: What value of measured pKi is listed for "N=C(/C=C/c1ccccc1)Nc1ccc(Cl)cc1" ?
Response line: 5.00 to 7.30

###

measured_on: human Dopamine D1 receptor (Homo sapiens)
Construct: expressed in transfected cells; host or cells: Ltk- cells (mouse fibroblasts), membrane preparation
assay_procedure: radioligand binding competition assay, displacement of [3H]SCH 23390 from D1 receptor (Ltk-cells membranes);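 further: under 5 nM class also requires D2 to D1 selectivity above 500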
condition_description: class combines Ki (D1) and, for A and B, D2:D1 selectivity (Ki D2 / Ki D1); read-out: D1 binding and D2:D1 Selectivity
Catalogue of Ki readings, one per entry.

Illustrative cases are given below, each with its answer.
molecule	outcome_measure	observed_measurement
N=C(/C=C/c1ccc(-c2ccc(C(F)(F)F)cc2)cc1)Nc1ccc(Cl)cc1	Ki	50 to 10000 nM
N=C(/C=C/c1ccc(Cl)cc1)Nc1ccc(Cl)cc1	Ki	50 to 10000 nM
N=C(/C=C/c1ccc(N)cc1)Nc1ccc(Cl)cc1	Ki	50 to 10000 nM

Prompt line: What value of measured Ki is listed for "COc1ccc(NC(=N)/C=C/c2ccc(N3CCNCC3)cc2Cl)cc1Cl" ?
Response line: 50 to 10000 nM

Prompt line: What value of measured Ki is listed for "N=C(/C=C/c1ccc(N2CCCCC2)cc1)Nc1ccc(Cl)cc1" ?
Response line: 50 to 10000 nM

Prompt line: What value of measured Ki is listed for N=C(/C=C/c1ccc(N2CCCC3CCCCC32)cc1)Nc1ccc(Cl)cc1 (stereo not drawn) ?
Response line: 50 to 10000 nM

Prompt line: What value of measured Ki is listed for "N=C(/C=C/c1ccc(N2CCN(Cc3cccc(OC(F)(F)F)c3)CC2)cc1Cl)Nc1ccc(Cl)cc1" ?
Response line: 10 to 50 nM

Prompt line: What value of measured Ki is listed for "N=C(/C=C/c1cc(Cl)cc(Cl)c1)Nc1ccc(Cl)cc1" ?
Response line: 50 to 10000 nM

Prompt line: What value of measured Ki is listed for "N=C(/C=C/c1ccncc1)Nc1ccc(Cl)cc1" ?
Response line: 50 to 10000 nM

Prompt line: What value of measured Ki is listed for "N=C(Nc1ccc(Cl)cc1)c1ccc2ccccc2n1" ?
Response line: 50 to 10000 nM

Prompt line: What value of measured Ki is listed for CCC(C)CN1CCN(c2ccc(/C=C/C(=N)Nc3ccc(Cl)cc3)c(Cl)c2)CC1 (stereo not drawn) ?
Response line: 50 to 10000 nM

Prompt line: What value of measured Ki is listed for "N=C(Nc1ccc(Cl)cc1)c1ccc2cc(N3CCNCC3)ccc2c1" ?
Response line: 10 to 50 nM

Prompt line: What value of measured Ki is listed for "N=C(/C=C/c1ccc(-c2ccccc2)cc1)Nc1ccc(Cl)cc1" ?
Response line: 10 to 50 nM

Prompt line: What value of measured Ki is listed for "COc1ccc(/C=C/C(=N)Nc2ccc(Br)cc2)cc1" ?
Response line: 10 to 50 nM

Prompt line: What value of measured Ki is listed for "COc1ccc(/C=C/C(=N)Nc2cccc(C#N)c2)cc1" ?
Response line: 50 to 10000 nM

Prompt line: What value of measured Ki is listed for CC(CN1CCN(c2ccc(/C=C/C(=N)Nc3ccc(Cl)cc3)c(Cl)c2)CC1)c1ccccc1 (stereo not drawn) ?
Response line: 10 to 50 nM

Prompt line: What value of measured Ki is listed for "N=C(Nc1ccc(Cl)cc1)c1ccc(-c2ccccc2)cc1" ?
Response line: 50 to 10000 nM

Prompt line: What value of measured Ki is listed for "N=C(/C=C/c1ccc(Cc2cccnc2)cc1)Nc1ccc2c(c1)CCC2" ?
Response line: 10 to 50 nM

Prompt line: What value of measured Ki is listed for "C=Cc1ccc(-c2ccc(/C=C/C(=N)Nc3ccc(Cl)cc3)cc2)cc1" ?
Response line: 10 to 50 nM

Prompt line: What value of measured Ki is listed for "COc1ccc(NC(=N)/C=C/c2ccc(Cc3cccnc3)cc2)cc1" ?
Response line: 50 to 10000 nM

Prompt line: What value of measured Ki is listed for "COc1ccc(/C=C/C(=N)Nc2ccc(Cl)cc2)cc1" ?
Response line: 10 to 50 nM

Prompt line: What value of measured Ki is listed for "N=C(/C=C/c1ccc(-c2ccc3[nH]ccc3c2)cc1)Nc1ccc(Cl)cc1" ?
Response line: < 10 nM

Prompt line: What value of measured Ki is listed for "CCCCN(CCCC)c1ccc(/C=C/C(=N)Nc2ccc(Cl)cc2)cc1" ?
Response line: 50 to 10000 nM

Prompt line: What value of measured Ki is listed for CC1CCCCN1c1ccc(/C=C/C(=N)Nc2ccc(Cl)cc2)cc1 (stereo not drawn) ?
Response line: < 10 nM

###

measured_on: human Dopamine D1 receptor (Homo sapiens, UniProt P21728)
Construct: expressed in transfected cells; host or cells: Ltk- cells (mouse fibroblasts), membrane preparation
assay_procedure: radioligand binding competition assay, displacement of [3H]SCH 23390 from D1 receptor (Ltk-cells membranes);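 further: under 5 nM class also requires D2 to D1 selectivity above 500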
condition_description: class combines Ki (D1) and, for A and B, D2:D1 selectivity (Ki D2 / Ki D1); read-out: D1 binding and D2:D1 Selectivity
outcome_measure: Ki

molecule	Ki
N=C(Nc1ccc(Cl)cc1)c1ccc2cc(O)ccc2c1	50 to 10000 nM

Prompt line: What value of measured Ki is listed for "Cc1ccc(C)n1-c1ccc(/C=C/C(=N)Nc2ccc(Cl)cc2)cc1" ?
Response line: 50 to 10000 nM

Prompt line: What value of measured Ki is listed for "COc1ccc(/C=C\C(=N)Nc2ccc(Cl)cc2)cc1" ?
Response line: 50 to 10000 nM

Prompt line: What value of measured Ki is listed for "COc1ccc(-c2ccc(/C=C/C(=N)Nc3ccc(Cl)cc3)cc2)cc1OC" ?
Response line: 50 to 10000 nM

Prompt line: What value of measured Ki is listed for "N=C(/C=C/c1cc(C(F)(F)F)cc(C(F)(F)F)c1)Nc1ccc(Cl)cc1" ?
Response line: 50 to 10000 nM

Prompt line: What value of measured Ki is listed for "N=C(/C=C/c1ccc(Cl)s1)Nc1ccc(Cl)cc1" ?
Response line: 10 to 50 nM

Prompt line: What value of measured Ki is listed for "CCOc1ccc(CN2CCN(c3ccc(/C=C/C(=N)Nc4ccc(Cl)cc4)c(Cl)c3)CC2)cc1" ?
Response line: 10 to 50 nM

Prompt line: What value of measured Ki is listed for "CC(C)(C)c1ccc(-c2ccc(/C=C/C(=N)Nc3ccc(Cl)cc3)cc2)cc1" ?
Response line: 50 to 10000 nM

Prompt line: What value of measured Ki is listed for "N=C(/C=C/c1ccc(Cc2cccnc2)cc1)Nc1ccc(O)cc1" ?
Response line: 50 to 10000 nM

Prompt line: What value of measured Ki is listed for "C[C@@H]1CNCCN1c1ccc(/C=C/C(=N)Nc2ccc(Cl)cc2)c(Cl)c1" ?
Response line: < 5 nM
